# PROCEDURE SUMMARY: protein stability index of a GFP-peptide fusion (GPS, HEK-293T) (PSI 1-6); higher = more stable;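 note: 24-mer peptide tiles fused after GFP, lentivirally expressed, FACS-sorted into six equal bins by GFP/DsRed ratio, decoded by Illumina sequencing, PSI is the read-weighted mean bin number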
# CONDITION INFO: treatment: MLN4924 1 uM, 8 h; c terminus: a fixed tail appended
READOUT KIND: protein stability index
// no unit, no text: just the number

Field: example entries. Status: answers known.
| ORDERED RESIDUES | protein stability index |
| --- | --- |
| ESALIALDSEKPKKLRFHPKQLYF [EHMT1] | 2.54 |
| SVLVILISIVIFCLETLPEFRDDR [KCNA4] | 2.96 |

(Q) Suppose we examine the sequence LRCGNQGKGWKATRLFHDSAVTSV [DCAF4] ; what protein stability index value has been reported?
(A) 2.27

(Q) What about this sequence? GADPKSVVCAFFKQGQCTKGDKCK [ZC3H15]
(A) 4.28

---

# PROCEDURE SUMMARY: protein stability index of a GFP-peptide fusion (GPS, HEK-293T) (PSI 1-6); higher = more stable
# CONDITION INFO: treatment: MLN4924 1 uM, 8 h; c terminus: a fixed tail appended
READOUT KIND: protein stability index
// no unit, no text: just the number

| ORDERED RESIDUES | protein stability index |
| --- | --- |
| TLQPPEFLYSHGVPRTLSPHQYHS [TBX5] | 3.06 |
| DMKYGIYAVENEHMNRLQSQRAML [VTI1B] | 2.93 |
| ERERLYPFSECGEAVSDSTPFLTN [ZNF263] | 4.11 |

(Q) Suppose we examine the sequence GHMDDGGYSMNFNMSSSRGPLPVK [RBMX] ; what protein stability index value has been reported?
(A) 3.95

(Q) What about this sequence? DLLKKAKFHHSDCLSTWLLHFIAT [RHOBTB3]
(A) 2.34

(Q) What about this sequence? GWLQHDFGHLSVFSTSKWNHLLHH [FADS1]
(A) 2.19

---

Collected protein stability index values appear next to each entry.
# PROCEDURE SUMMARY: protein stability index of a GFP-peptide fusion (GPS, HEK-293T) (PSI 1-6); higher = more stable
# CONDITION INFO: treatment: DMSO; c terminus: a fixed tail appended
// no unit, no text: just the number

| ORDERED RESIDUES | protein stability index |
| --- | --- |
| CSPALKRSHSDSLDHDIFQLIDPD [CDC25A] | 3.76 |
| LEELGTLNVFQTVSRMRTQRAFSI [PTPN9] | 2.48 |

Consider the record given below.
(Q) Suppose we examine the sequence HTPQSSVKTSVPSSKSSGDLVDLF [CLINT1] ; what protein stability index value has been reported?
(A) 4.03

---

# PROCEDURE SUMMARY: protein stability index of a GFP-peptide fusion (GPS, HEK-293T) (PSI 1-6); higher = more stable
# CONDITION INFO: treatment: DMSO; c terminus: a fixed tail appended
Use 3 as the dividing line for protein stability index, with the line itself on the label 1 side and lower values as label 0.

Reference set (8 entries):
| ORDERED RESIDUES | CLASSIFICATION |
| --- | --- |
| VELPMNSSNGNDNGNGKNGGLEHV [BNIP3L] | label 1 |
| TMSIPVAMETDGPLFEDVQMLRKT [PPP2R5C] | label 1 |
| FFIYGQVLYTDKTYAMGHLIQRKK [TNFSF13B] | label 0 |
| RPTPQDWLHRRAQILEILRRRPWA [ADAMTS4] | label 0 |
| FDDCLYALCVVDTIKRSSQTGEWQ [GFOD1] | label 0 |
| SDDHIRVIVQLHKLRHLDISRDRL [ZER1] | label 0 |
| SCDLPEERYRHEIAHDGQRIYVLG [KLHDC10] | label 1 |
| DSTLSYTETEATNSLITAPGEFSD [SMAD6] | label 1 |

(Q) Given the entry VNMYVSIVFFGLISFDRYYKIVKP [P2RY14] , answer whether its protein stability index meets or surpasses 3.
(A) label 1

(Q) What about this sequence? MRTGQNTWESKNILAVSFAPLVQP [PCMTD1]
(A) label 0

(Q) What about this sequence? ENQSPSSSNYFSPRESTDFSSSSQ [ZBTB22]
(A) label 1

---

# PROCEDURE SUMMARY: protein stability index of a GFP-peptide fusion (GPS, HEK-293T) (PSI 1-6); higher = more stable
# CONDITION INFO: treatment: DMSO; c terminus: a fixed tail appended
Use 3 as the dividing line for protein stability index, with the line itself on the Fulfilled side and lower values as Not fulfilled.

Reference set (4 entries):
| ORDERED RESIDUES | CLASSIFICATION |
| --- | --- |
| IFATKPHVLPAVLAEVAPVVTTEH [PYCR3] | Fulfilled |
| RHRLITQVYLSHTAWTEACQVEVR [INTS4] | Not fulfilled |
| TTNVGRYPVGRFPSLHVVKVLLDC [FEM1A] | Not fulfilled |
| PLVTPPQSPVSPQPPAITQVHRQG [SMTNL2] | Fulfilled |

(Q) Given the entry FSDHTFRHYAYLRDSLSHLVPALR [INTS4] , answer whether its protein stability index meets or surpasses 3.
(A) Not fulfilled

(Q) What about this sequence? IKKLIYVHLVIWLLLVAKMSVGHL [JAGN1]
(A) Fulfilled

(Q) What about this sequence? EYVPGGELFSYLRNRGRFSSTTGL [PRKX]
(A) Not fulfilled

(Q) What about this sequence? SVAFAVAWFLPMPQKSLFFHHIPS [SLC19A2]
(A) Fulfilled

(Q) What about this sequence? FMYFLRGSLPWQGLKADTLKERYQ [CSNK1G1]
(A) Not fulfilled

(Q) What about this sequence? VSGDTSKLMKILQPQDVDLALDSG [RIPK4]
(A) Fulfilled

(Q) What about this sequence? AEKSVAPSNTGSRTTSVRCRGIPR [NEK8]
(A) Fulfilled

(Q) What about this sequence? GRCATRAFHRKSHSLDLNISEKLT [RNF180]
(A) Fulfilled

(Q) What about this sequence? ERLRLEQQKQQIMAALNSQTAVQF [ACBD3]
(A) Fulfilled

(Q) What about this sequence? GYAVNVFDIQQGFDNPQVRFFLGD [NSDHL]
(A) Not fulfilled

(Q) What about this sequence? VKMALDIEIATYRKLLEGEESRIS [PRPH]
(A) Not fulfilled

(Q) What about this sequence? RDAAGKPQRPRSAPRTSSCAERLQ [FCHO1]
(A) Fulfilled

(Q) What about this sequence? EQELKTVTYSLLKRLKERSLDTLL [SMAD6]
(A) Not fulfilled

(Q) What about this sequence? NVNVTLLSKQAKFAYKDEYEKFKL [TMEM120A]
(A) Not fulfilled

(Q) What about this sequence? FDRNADGYIDPEELAEIFRASGEH [TNNC2]
(A) Fulfilled

(Q) What about this sequence? KWKVGIPSDPLVSIGALISKAHLE [ALDH8A1]
(A) Not fulfilled

(Q) What about this sequence? RKRKQSGHSPARAGKQRMKEKEQE [DDIT3]
(A) Fulfilled

---

# PROCEDURE SUMMARY: protein stability index of a GFP-peptide fusion (GPS, HEK-293T) (PSI 1-6); higher = more stable
# CONDITION INFO: treatment: MLN4924 1 uM, 8 h; c terminus: a fixed tail appended
READOUT KIND: protein stability index
// no unit, no text: just the number

| ORDERED RESIDUES | READOUT KIND | NUMERIC VALUE |
| --- | --- | --- |
| LTNIWMARTCAKQNINAPAPATTS [C22orf31] | protein stability index | 2.59 |
| MLIFWTITLFLLGAAKGKEVCYED [PNLIPRP1] | protein stability index | 3.3 |
| VQFSHHVFLNLHTLKFYCLPDNYE [USP39] | protein stability index | 3.04 |

(Q) Suppose we examine the sequence EILRYMKEFTLLLSAANVCLDPII [P2RY14] ; what protein stability index value has been reported?
(A) 2.26

(Q) What about this sequence? KKKPGTAMCVGCGSQIHDQFILRV [ISL2]
(A) 2.23

(Q) What about this sequence? SLADQMSLLQSAWMEILILGVVYR [ESRRG]
(A) 2.86

---

# PROCEDURE SUMMARY: protein stability index of a GFP-peptide fusion (GPS, HEK-293T) (PSI 1-6); higher = more stable
# CONDITION INFO: treatment: MLN4924 1 uM, 8 h; c terminus: a fixed tail appended
Would you mind sorting the entries by protein stability index according to these classes? Low: < 3; Medium: ≥ 3 and < 4; High: ≥ 4

Reference set (5 entries):
| ORDERED RESIDUES | CLASSIFICATION |
| --- | --- |
| QLFFFHLFVGVDCFLLTAMAYDQF [OR3A1] | Medium |
| CAERLQSEEQVSKNLFGPPLESAF [FCHO1] | Medium |
| MQNLNDRLASYLDKVRALEEANAD [KRT15] | High |
| PRARRRLGSGPDRELRKPEEPENG [PWWP2B] | High |
| SDSVHIEDAEAVEQLREALHEALL [ESRRA] | Medium |

(Q) Which band does SAGRSMPEASDQEEHLSPLDFLHS [RNF180] fall in?
(A) High

(Q) What about this sequence? DLLSCSNFAVQHRYLFEEDNLLRS [MATN2]
(A) Low

(Q) What about this sequence? WEISDDYPSLQAMGWFNNEVGSMK [CRYBA1]
(A) Medium

(Q) What about this sequence? KLFDVPSLNGVYPRMNEVYTRLGE [CEP70]
(A) Low

(Q) What about this sequence? LFGFYFCMPLVCTAIFYTLMTCEM [EDNRA]
(A) Medium
